B1: library; a variant is named by its letters at N, in order (parent)
chain: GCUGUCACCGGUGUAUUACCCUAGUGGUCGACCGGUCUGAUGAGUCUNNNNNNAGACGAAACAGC

Variants of: B1
methodNotes: normalized RNA/DNA level with ligand (relative to sTRSVctl = 100) (log10 (% of sTRSVctl)); ligand: hypoxanthine (xanthine aptamer); higher = less ribozyme self-cleavage, higher mRNA level
condition: ligand concentration (+) RNA-Seq: 5 mM, HEK293T, reporter: mCherry (pCS4076), ligand present: yes
assayEndpoint: normalized RNA/DNA level with ligand (log10)

mutationList: GGUAUG
dataValue: 1.73
--
mutationList: AGCGUA
dataValue: 1.94
--
mutationList: UUCGUG
dataValue: 1.96
--
mutationList: CGAAGU
dataValue: 1.93
--
mutationList: GCGAAU
dataValue: 1.83
--
mutationList: AAAGGG
dataValue: 1.75
--
mutationList: GUUCGG
dataValue: 1.91
--
mutationList: ACGAUU
dataValue: 1.84
--
mutationList: AACCUC
dataValue: 1.94
--
mutationList: UUAUUG
dataValue: 1.9
--
mutationList: CUUAUC
dataValue: 1.98
--
mutationList: GCCGCU
dataValue: 1.98
--
mutationList: AGUAGU
dataValue: 1.83
--
mutationList: UUGACG
dataValue: 1.93
--
mutationList: CGCCUG
dataValue: 2
--
mutationList: UUUUUU
dataValue: 1.97
--
mutationList: CAUUCC
dataValue: 1.98
--
mutationList: AAUCGC
dataValue: 1.92
--
mutationList: UGGAGC
dataValue: 1.96
--
mutationList: GUCCGC
dataValue: 1.9
--
mutationList: UCGCCU
dataValue: 2.04
--
mutationList: AACCUG
dataValue: 1.81
